target: CD137 expressed on the cell surface of HT1080_4-1BB cells (human, UniProt Q07011 24-255); further: test concentration or dose not given here
Sequence (Q07011 24-255): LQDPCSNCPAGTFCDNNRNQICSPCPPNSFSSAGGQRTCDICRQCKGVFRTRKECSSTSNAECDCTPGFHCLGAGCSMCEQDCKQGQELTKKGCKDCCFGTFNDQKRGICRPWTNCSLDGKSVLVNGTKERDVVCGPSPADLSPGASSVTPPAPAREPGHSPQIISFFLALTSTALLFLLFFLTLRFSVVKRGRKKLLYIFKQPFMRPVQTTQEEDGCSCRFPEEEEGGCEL
testProtocol: cell-based or functional assay
Mark 1 only when Functional assay IL-8 stays strictly below 0.6 abs. corr.. Values equal to the cut-off are -1.

Example results:
binder | labelClass
P018.S.14.A.D06 (antibody, V domains shown, V regions on human Ig constant parts; also called AB137_10) VH: QSVEESGGRLVTPGTPLTLTCTVSGFSLSTYAMIWVRQAPGKGLEWIGVVYDNGYISHATWVKGRFTISKTSTTVGLEITSPTTEDTATYFCARSADGSWSTYFNLWGQGTLVTVSS VL: DIVMTQTPASVEAAVGGTVTIKCQASESISNYLAWYQQKPGQPPKLLIYKASTLASGVSSRFKGSGSGTEFTLTISDLESADAATYYCQTNYCCSSSDNGFAFGGGTEVVVK | 1
P018.S.13.A.G04 (antibody, V domains shown, V regions on human Ig constant parts; also called AB137_8) VH: QSLEESGGRLVTPGTPLTLTCTASGFSLSSYDMSWVRQAPGKGLEYIGYISSSGNTYYASWAKSRFTISKTSTTVDLKITSPTTEDTATYFCAREGDYWDFNLWGPGTLVTVSS VL: AQVLTQTPSSVSAAVGGTVTINCQASQSISNLLAWYQQKPGQRPRLLIYRASTLASGVPSRFKGSGSGTEFTLTISDLESEDAATYYCAGGFPGLDTGATFGGGTEAVVT | 1
P018.S.14.A.A04 (antibody, V domains shown, V regions on human Ig constant parts; also called AB137_9) VH: QSLEESGGRLVTPGTPLTLTCTVSGFSLNDYWMSWVRQAPGKGLEWIGYIDVGGSLYYASWAKGRFTISRTSTTVDLKMTSLTTEDTATYFCARGGLTYGFDLWGPGTLVTVSS VL: DIVMTQTPASVSEPVGGTVTINCQASEDISSYLAWYQQKPGQRPKRLIYGASDLASGVPSRFSASGSGTEYALTISDLESADAATYYCHYYATISGLGVAFGGGTEVVVK | -1
P018.S.13.A.A05 (antibody, V domains shown, V regions on human Ig constant parts; also called AB137_4) VH: QSLEESGGRLVTPGTPLTLTCTASGFSLSRYDMSWVRQAPGKGLEYIGVISSSGGTNYANWAKGRFTISKTSTTVDLKITSPTTEDTATYFCAREGDYWDFNLWGPGTLVTVSS VL: AQVLTQTPSSVSAAVGGTVTINCQASQSISNLLAWYQQKPGQPPKLLIYGASTLASGVPSRFSGSGSGTEFTLTISDLESDDAATYYCAGGFPGLDTVAAFGGGTEAVVT | 1

Please find the next binder below.
Exercise: Is Functional assay IL-8 of P018.S.14.A.H01 (antibody, V domains shown, V regions on human Ig constant parts; also called AB137_12) VH: QSVEESGGRLVTPGTPLTLTCTVSGFSLSDYYMTWVRQAPGKGLEYIGIMSGSGSTYYASWAKGRFTISKTSSTTLELKITSPTTEDTAIYFCARDGDYAGWGYATGAFDPWGPGTLVTVSS VL: AAVLTQTPSPVSAAVGGTVTISCQASQSVVGNSLLSWFQKKPGQPPKLLIYSASSLASGVPSRFKGSGSGTQFTLTISDLESDDAATYYCTGRYNSDTDTFVFGGGTEVVVK strictly below 0.6 abs. corr.?
Key: -1
